Just for reference, patent KR20220160483A is where these values come from.

- target-system: T1, 재조합 인간 ASM(acid sphingomyelinase) 단백질 (human, UniProt P17405 62-630, limits assumed)
- T1 construct: Recombinant protein, bought (R&D systems in the ELISA); also called 인간 ASM 단백질; recombinant human ASM protein
- T1 sequence: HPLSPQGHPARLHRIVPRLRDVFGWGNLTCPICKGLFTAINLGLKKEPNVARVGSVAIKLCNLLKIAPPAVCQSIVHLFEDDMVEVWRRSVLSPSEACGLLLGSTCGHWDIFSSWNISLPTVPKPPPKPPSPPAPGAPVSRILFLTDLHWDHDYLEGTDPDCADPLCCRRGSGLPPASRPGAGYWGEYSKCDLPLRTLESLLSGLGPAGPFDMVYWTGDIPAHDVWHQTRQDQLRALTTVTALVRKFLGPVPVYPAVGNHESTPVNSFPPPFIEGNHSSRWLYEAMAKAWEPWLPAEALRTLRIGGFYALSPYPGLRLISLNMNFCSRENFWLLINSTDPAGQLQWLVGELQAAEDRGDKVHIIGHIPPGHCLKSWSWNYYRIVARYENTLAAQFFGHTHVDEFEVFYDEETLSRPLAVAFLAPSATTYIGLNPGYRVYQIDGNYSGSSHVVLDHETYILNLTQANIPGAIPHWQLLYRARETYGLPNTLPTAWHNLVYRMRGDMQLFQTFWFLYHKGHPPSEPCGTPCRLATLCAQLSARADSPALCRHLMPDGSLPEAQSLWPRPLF
- method-summary: BLI (Octet QK384), human ASM amine-coupled on AR2G sensor, antibody 0.4, 2, 10 nM
Please respond with reported koff for every item in the list.
Give just the number in s⁻¹; leave the unit off.

Lab note: #9104 항체 (antibody, mouse IgG1, V domains shown) VH: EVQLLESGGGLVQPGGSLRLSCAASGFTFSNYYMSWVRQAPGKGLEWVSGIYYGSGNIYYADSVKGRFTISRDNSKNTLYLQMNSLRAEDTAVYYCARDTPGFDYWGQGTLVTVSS VL: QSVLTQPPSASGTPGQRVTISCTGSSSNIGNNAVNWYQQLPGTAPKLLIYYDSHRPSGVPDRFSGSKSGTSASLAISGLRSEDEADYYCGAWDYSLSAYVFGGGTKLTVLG gave koff of 8.18e-05

Lab note: #9113 항체 (antibody, mouse IgG1, V domains shown, also called #9113 mIgG1) VH: EVQLLESGGGLVQPGGSLRLSCAASGFTFSSYYMSWVRQAPGKGLEWVSSISPGGSSIYYADSVKGRFTISRDNSKNTLYLQMNSLRAEDTAVYYCAKGASLFDYWGQGTLVTVSS VL: QSVLTQPPSASGTPGQRVTISCSGSSSNIGNNAVSWYQQLPGTAPKLLIYSDNKRPSGVPDRFSGSKSGTSASLAISGLRSEDEADYYCGTWDASLNAYVFGGGTKLTVLG gave koff of 0.000656

Lab note: #9101 항체 (antibody, mouse IgG1, V domains shown) VH: EVQLLESGGGLVQPGGSLRLSCAASGFTFSNYAMSWVRQAPGKGLEWVSGIYPNGGNKYYADSVKGRFTISRDNSKNTLYLQMNSLRAEDTAVYYCAKNAYRFDYWGQGTLVTVSS VL: QSVLTQPPSASGTPGQRVTISCSGSSSNIGNNYVSWYQQLPGTAPKLLIYADSKRPSGVPDRFSGSKSGTSASLAIGGLRSEDEADYYCGSWDYSLNAYVFGGGTKLTVLG gave koff of 0.000728

Lab note: #9108 항체 (antibody, mouse IgG1, V domains shown) VH: EVQLLESGGGLVQPGGSLRLSCAASGFTFSNYAMSWVRQAPGKGLEWVSAIYPGGGSIYYADSVKGRFTISRDNSKNTLYLQMNSLRAEDTAVYYCARDVLGLTPKPFDYWGQGTLVTVSS VL: QSVLTQPPSASGTPGQRVTLSCTGSSSNIGSNTVYWYQQLPGTAPKLLIYANSQRPSGVPDRFSGSKSGTSASLAISGLRSEDEADYYCGSWDYSLSGYVFGGGTKLTVLG gave koff of 2.96e-05
